- test: CEETOX_H295R_PROG: CeeTox H295R High-throughput Steroidogenesis Assay for Progesterone (PROG) (AID 2283442)
- experimental context: actives raise or lower the signal
Activity calls are given as the source filed them. Rule for the calls: active = hit-call score of the fitted dose curve at least 0.9, where 1 is the maximum; inactive = score below 0.9.
The reply should be one of these categories: active, inactive

Completed entries (count: 5):
- compound: "COc1ccc2nc(N)sc2c1"
  category label: "active"
- compound: "CCCCC/C=C\\CCC=O"
  category label: "inactive"
- compound: "CCOC(=O)Cc1cccc2ccccc12"
  category label: "active"
- compound: "C#CC1(O)CC[C@H]2[C@@H]3CCC4=CCCC[C@@H]4[C@H]3CC[C@@]21C (some centres not stated)"
  category label: "inactive"
- compound: "Oc1ccc(Cl)cc1Cc1cc(Cl)ccc1O"
  category label: "inactive"

Request: Hi, do you know how "Cc1ccc(C(C)c2ccc(C)c(C)c2)cc1C" came out in this test?
Response: active

Request: Quick one: "S=C(NC1CCCCC1)NC1CCCCC1"
Response: inactive

Request: Quick one: "CCCCNc1ccc(NCCCC)c2c1C(=O)c1ccccc1C2=O"
Response: active

Request: Quick one: "CCCCCCCCCCCCCOP(=O)(O)O"
Response: inactive

Request: Quick one: "COCc1c(C(C)C)nc(C(C)C)c(/C=C/[C@@H](O)C[C@@H](O)CC(=O)O)c1-c1ccc(F)cc1"
Response: active

Request: Quick one: "O=C(Nc1ccccc1SSc1ccccc1NC(=O)c1ccccc1)c1ccccc1"
Response: inactive

Request: Quick one: "COC(=O)c1c(C)cc(O)c(C)c1O"
Response: active
